Provide the reported GI50 of each item.
Test system: CAKI-1
Assay: NCI tumour cell line growth inhibition, 48 h
Calls of active or inactive are those of the source. No stated cut-off is given here; in the data, active = GI50 up to about 1.1 µM and inactive = higher.

* CC(=O)c1ccc2c3c1[C@H]1O[C@H]1c1cccc(c1-3)[C@@H]1O[C@H]21 | 1.29 µM (inactive)
* O=P(OCc1ccccc1)(OCc1ccccc1)C(O)/C=C/c1ccccc1 (stereo not given) | 35.7 µM (inactive)
* C[C@@H]1Nc2cc(NC(=O)OCCF)nc(N)c2N=C1c1ccccc1 | > 100 µM (inactive)
* Cc1cc2c(cc1C)[n+]([O-])c(C(=O)/C=C/c1ccc3c(c1)OCO3)c(C)[n+]2[O-] | 61.1 µM (inactive)

Using the record for COC(=O)c1c(N)n[nH]c1N , report its GI50.
> 100 µM (inactive)

---

Tested on: RPMI-8226
Assay: NCI tumour cell line growth inhibition, 48 h
The source made the active and inactive calls. Cut-off read from the data, not from the text of the source: active = GI50 up to about 1.1 µM and inactive = higher. Where a SMILES comes first, the peptide text is derived from it. The star is where a group is joined. Cbz = O=C(OCc1ccccc1)*; Boc = CC(C)(C)OC(=O)*; Bn = c1ccc(C*)cc1
Choose the fitting class; nothing outside active, inactive is accepted.

• CCOC(=O)/C(O)=C(/c1n[nH]c(=O)c2ccccc12)[N+](=O)[O-] = inactive
• O=P(OCc1ccccc1)(OCc1ccccc1)C(O)/C=C/c1ccccc1 (stereo unspecified) = inactive
• COc1ccc2nc3n(c2c1)C(c1c(Cl)cccc1Cl)SC3 (stereo unspecified) = inactive

# fetch the recorded call for CC(C)N(CCn1c2c3ccccc3ccc2c2oc(=O)c3ccccc3c21)C(C)C here
inactive

# fetch the recorded call for CC(=O)Oc1cc2c(n(C)c1=O)-c1ccccc1C2 here
inactive

# fetch the recorded call for CC(C)(C)C(=O)CP(=O)(O)O here
inactive

# fetch the recorded call for O=c1c2ccccc2c2nc3ccccc3nc2n1C1CCCCC1 here
inactive

# fetch the recorded call for BrC(c1cccc2ccccc12)c1cccc2ccccc12 here
inactive

# fetch the recorded call for S=C(N/N=C/c1ccccn1)N1CC2CCC(CC2)C1 here
active

# fetch the recorded call for CC(C)(C)OC(=O)NC(Cc1ccc(OCc2ccccc2)cc1)C(=O)NC(CCCCNC(=O)OCc1ccccc1)C(=O)O (stereo unspecified) (Boc-Tyr(Bn)-Lys(Cbz)-OH; configuration not given here) here
inactive

# fetch the recorded call for Cc1cc(C)nc(NS(=O)(=O)c2ccc(NC(=O)NC(F)(F)F)cc2)n1 here
inactive

# fetch the recorded call for Cc1cc(C)c2c(O)cc(-c3ccc(Cl)cc3)nc2n1 here
inactive

# fetch the recorded call for CCC(NC(C)c1ccccc1)C(O)c1ccc(OCc2ccccc2)c(OCc2ccccc2)c1 (stereo unspecified) here
inactive

# fetch the recorded call for O=C1NCC2(CCN(CCCC3(c4ccc(F)cc4)OCCO3)CC2)N1c1ccccc1 here
inactive

# fetch the recorded call for COc1cc2c(cc1O)C1C(O)C(O)C=C3CCN(C2)C31 (stereo unspecified) here
inactive

# fetch the recorded call for C=CCN(c1cc(O)c2c(c(C)cn2S(=O)(=O)c2ccccc2)c1[N+](=O)[O-])S(C)(=O)=O here
inactive

---

System: OVCAR-3
Assay: NCI tumour cell line growth inhibition, 48 h
Activity calls are given as the source filed them. No stated cut-off is given here; in the data, active = GI50 up to about 1.1 µM and inactive = higher.
parameter: GI50

* C=C[C@]1(C)CC[C@]2(C)C(CC[C@@]3(C)C2C[C@H](O)[C@H](O)[C@@]3(C)O)C1 (some centres not stated) | > 100 µM (inactive)
* Cc1n[nH]c(=O)n1-c1cccnc1 | > 100 µM (inactive)
* O=C(/C=C/c1ccccc1O)CC(=O)/C=C/c1ccccc1O | 3.82 µM (inactive)
* COc1ccc2c(c1)[n+]([O-])c(/C(C)=N/NC(=O)CC#N)c[n+]2[O-] | > 100 µM (inactive)
* O=C(O)[C@@H](NS(=O)(=O)c1ccc(F)cc1)c1ccccc1 | > 100 µM (inactive)
* CN(C)C(=S)/N=c1\ss/c(=N\S(=O)(=O)c2ccccc2)n1N(C)C | > 100 µM (inactive)

# per-item lookup of GI50; items listed below
1. COC(=O)C(NC(=O)C(CC(=O)OC(C)(C)C)NC(=O)OC(C)(C)C)C(O)c1ccccc1 (configuration not stated)
2. N#Cc1c(-c2ccccc2)c(/C=N/c2ccc(F)cc2)c(=O)n2c1[nH]c1ccccc12
3. CC(C)(Cc1ccccc1)N1C(=O)N1C(C)(C)Cc1ccccc1
4. NS(=O)(=O)c1ccc(CNc2nc(-c3cccs3)nc3ccc(I)cc23)cc1
5. COc1cccc(/C=N/[N-]C(=S)Nc2ccccc2)c1[O-].O.[Zn+2]
6. CCOC(=O)C(COS(C)(=O)=O)(COS(C)(=O)=O)C(=O)OCC
7. COc1ccc(/C=N/n2c(Cc3ccc(Cl)cc3)n[nH]c2=O)c(OC)c1
8. CCOC(=O)CN(c1ccccc1)c1nc(=[N+](C)C)ss1

1. > 100 µM (inactive)
2. 19.7 µM (inactive)
3. > 100 µM (inactive)
4. 11.2 µM (inactive)
5. 40.5 µM (inactive)
6. > 100 µM (inactive)
7. 35.2 µM (inactive)
8. 0.284 µM (active)

# per-item lookup of GI50; items listed below
1. O=C(CCc1ccc(O)cc1)NCCc1cccc(OCc2ccccc2)c1
2. COC(=O)C(/C(=N/N)C(=O)Nc1cccc(O)c1)c1nc2ccccc2nc1O (configuration not stated)
3. CC(=O)c1ccc2c3c1[C@H]1O[C@H]1c1cccc(c1-3)[C@@H]1O[C@H]21
4. COC(=O)C1=C(c2cc(OC)c(OC)c(OC)c2)OC(c2ccc(OC)c(OC)c2)C1 (configuration not stated)
5. CN(C)CCCNc1ncnc2c1ncn2C1OC(CO)C(O)C1O (configuration not stated)

17.2 µM (inactive)
> 100 µM (inactive)
3.27 µM (inactive)
38.6 µM (inactive)
> 100 µM (inactive)

# per-item lookup of GI50; items listed below
1. COc1ccc(SCc2cc(OCc3ccccc3)c(OCc3ccccc3)c(OCc3ccccc3)c2)cc1
2. CC1(C(=O)O)CCCC1C(=O)O (configuration not stated)
3. C[C@@H]1Nc2cc(NC(=O)OCCF)nc(N)c2N=C1c1ccccc1
4. O=C1C(c2c(O)[nH]c3ccc(Br)cc23)=Nc2ccccc21
5. O=Cc1cn(CCCCCn2cc(C=O)c3ccccc32)c2ccccc12
6. S=C(N/N=C/c1ccccn1)N1CC2CCC(CC2)C1
7. C[C@H](CCc1nc(C#N)c(N)o1)[C@H]1CC[C@H]2[C@@H]3CCC4C[C@@H](O)CC[C@]4(C)[C@H]3C[C@@H](O)[C@]12C (some centres not stated)
8. CCc1ccccc1NC(=O)CC1NC(=O)CS1 (configuration not stated)

1.65 µM (inactive)
> 100 µM (inactive)
< 0.0001 µM (active)
10.6 µM (inactive)
> 100 µM (inactive)
< 0.01 µM (active)
11.9 µM (inactive)
> 100 µM (inactive)

# per-item lookup of GI50; items listed below
1. CCOC(=O)C1(Cc2ccccc2)Cc2ccccc2C1=O (configuration not stated)
2. O=C1NCC2(CCN(CCCC3(c4ccc(F)cc4)OCCO3)CC2)N1c1ccccc1

30.8 µM (inactive)
> 100 µM (inactive)

---

Test system: DMS-114
Experiment: NCI tumour cell line growth inhibition, 48 h
Calls of active or inactive are those of the source. Cut-off read from the data, not from the text of the source: active = GI50 up to about 1.1 µM and inactive = higher.
parameter: GI50

Sample records with GI50:
- COc1cccc(/C=N/[N-]C(=S)Nc2ccccc2)c1[O-].O.[Zn+2]: 15.4 µM (inactive)
- C=C1C(=O)OC2/C=C(\C)C(OC(C)=O)C3OC3C(C)(O)CC(OC(=O)/C(C)=C/C)C12 (stereo not given): 5.45 µM (inactive)
- COC(=O)[C@H]1C=C[C@@H](C)n2c(=O)c3cc4ccccc4cc3c(=O)n21: > 100 µM (inactive)
- COc1cccc2c1C(=O)c1c(O)c3c(c(O)c1C2=O)CC(O)(C(O)CO)CC3OC1CC(N2CCOCC2)C(O)C(C)O1 (stereo not given): 0.018 µM (active)

Now turn to the next compound.
Using the record for CC1(C)c2ccccc2N2C(c3ccccc3)=NOC21C (stereo not given) , report its GI50.
> 100 µM (inactive)

---

Tested on: U-251
Experiment: NCI tumour cell line growth inhibition, 48 h
The source made the active and inactive calls. Rule as the data show it: active = GI50 up to about 1.1 µM and inactive = higher.
Provide the reported GI50 of each item.

• C=C(N=[N+]=[N-])c1cn(C2CC(O)C(CO)O2)c(=O)[nH]c1=O (stereo not given) = > 100 µM (inactive)
• CC(C)(C)c1cc(C(=O)/C=C/c2c(Cl)cccc2Cl)cc(C(C)(C)C)c1O = 11.9 µM (inactive)
• Nc1ncnc2c1ncn2[C@@H]1O[C@H](COC(c2ccccc2)(c2ccccc2)c2ccccc2)[C@@H](OC(=S)Oc2ccccc2)[C@@H]1F = 10.2 µM (inactive)
• CCc1nc(N)nc(N)c1-c1ccc(Cl)c([N+]#N)c1 = 64.3 µM (inactive)
• COC(=O)C1c2c(c3ccccc3n2C(=O)OC)CCN2CCC1C(S(=O)(=O)c1ccccc1)C2=O (stereo not given) = > 100 µM (inactive)
• O=S(=O)(O)c1ccc(/N=N/c2ccc(/N=N/c3c(O)c(S(=O)(=O)O)cc4cc(S(=O)(=O)O)ccc34)cc2)cc1 = > 100 µM (inactive)

# per-item lookup of GI50; items listed below
1. NC(=O)c1nc[nH]c1/N=N/SCC(N)C(=O)O (stereo not given)
2. N#CCCC(CC#N)N1CCN(CCO)CC1 (stereo not given)
3. Cc1cccc(C(=O)c2cccc3ccccc23)c1C(=O)O

1: > 80.7 µM (inactive); 2: > 100 µM (inactive); 3: > 100 µM (inactive)

Using the record for Cc1c2c(n(CCc3ccc(Cl)cc3)c1C)NN=C(C#N)S2(=O)=O , report its GI50.
> 100 µM (inactive)
